test: inhibitors of hydroxyurea-induced Chk1 phosphorylation, primary screen, imaging, HeLa, phospho-Chk1 nuclear intensity (AID 1187); settings: hydroxyurea-induced phospho-Chk1 immunofluorescence imaging, higher = more signal; also: test concentration not given here
Calls of active or inactive are those of the source. No rule for the calls is given here.
Assign z-score to each entry below.

Hi team, please reply with z-score for each item in this list.
1. COc1cc2c(cc1OC)CN(C(=O)[C@@H]1[C@H]3C(=O)O[C@H](c4ccccc4)[C@H](c4ccccc4)N3[C@H](c3ccc(O)cc3)[C@@]13C(=O)Nc1ccc(C#CC4(O)CCCCCC4)cc13)CC2
2. CN1C(=O)C2C=CC(C(O)C3=C[C@H]4C[C@@H](C3)C4(C)C)N(Nc3ccccc3)C2C1=O (some centres undefined)
3. CC(=O)NCCCC[C@@H]1NC(=O)[C@@H]2C[C@H](C(=O)NCCCCN(C)C)[C@H](c3cccc(OCCO)c3)N2C1=O
4. C=CC[C@]1(C(=O)NCCCOC)N=C(c2ccc(OCCCO)cc2)O[C@H]1c1ccccc1N=[N+]=[N-]

Result block:
1: 0.812 (inactive); 2: -0.864 (inactive); 3: -0.0329 (inactive); 4: 0.0181 (inactive)
